Where do the numbers come from? From patent US20250059282A1.

# measuredOn: T1, Human b-PD-L2-His (human, UniProt Q9BQ51 20-220, biotinylated (b-); sites not stated)
# T1 construct: Antigen of the MSD-SET measurements; also called biotinylated human PD-L2-His; not shown: His tag
# T1 sequence: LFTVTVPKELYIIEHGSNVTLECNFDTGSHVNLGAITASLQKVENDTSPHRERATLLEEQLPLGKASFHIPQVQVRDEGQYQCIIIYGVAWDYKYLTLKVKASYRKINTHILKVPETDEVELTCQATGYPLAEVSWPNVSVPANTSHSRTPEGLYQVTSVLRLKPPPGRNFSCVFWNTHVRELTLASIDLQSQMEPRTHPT
# assayInfo: MSD-SET, Fab, monovalent
measuredParameter: Kd (nM)
Answers are plain numbers, in nM.

BiPDL4-44 Fab (Fab, V domains shown, Fab made by papain digestion of the IgG) VH: QVQLVESGGGVIQPGRSLRLSCAASGFTFSAYLMHWVRQAPGKGLEWVAAIGYDGMNKYYADSVKGRFTISRDNSKNTLYLQMNSLRAEDTAVYYCARAGIEYSYAYTDYWGQGTLVTVSS VL: EIVLTQSPGTLSLSPGERATLSCRASHSVVSSYLAWYQQKPGQAPRLLIYGASSREDGIPDRFSGSGSGTDFTLTISRLEPEDFAVYYCVQFGWWPPRTFGGGTKVEIK    0.15
BiPDL4-24 Fab (Fab, V domains shown, Fab made by papain digestion of the IgG) VH: QVQLVESGGGVVQPGRSLRLSCAASGFTFDEYGMHWVRQAPGKGLEWVAVIGYDGLNKYYADSVKGRFTISRDNSKNTLYLQMNSLRAEDTAVYYCARAGIEYSYAYTDYWGQGTLVTVSS VL: EIVLTQSPGTLSLSPGERATLSCRASNSVVSSYLAWYQQKPGQAPRLLIYGAASRANGIPDRFSGSGSGTDFTLTISRLEPEDFAVYYCVQFGWWPPRTFGGGTKVEIK    0.12
BiPDL4-34 Fab (Fab, V domains shown, Fab made by papain digestion of the IgG) VH: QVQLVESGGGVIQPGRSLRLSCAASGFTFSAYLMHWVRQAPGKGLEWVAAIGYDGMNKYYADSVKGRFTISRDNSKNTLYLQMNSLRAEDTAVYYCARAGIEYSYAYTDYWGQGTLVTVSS VL: EIVLTQSPGTLSLSPGERATLSCRASQFVYSSDLAWYQQKPGQAPRLLIYGASARAAGIPDRFSGSGSGTDFTLTISRLEPEDFAVYYCMQFGWWPPRTFGGGTKVEIK    0.052

Shift focus to the following entry.
Recorded Kd for BiPDL4-14 Fab (Fab, V domains shown, Fab made by papain digestion of the IgG) VH: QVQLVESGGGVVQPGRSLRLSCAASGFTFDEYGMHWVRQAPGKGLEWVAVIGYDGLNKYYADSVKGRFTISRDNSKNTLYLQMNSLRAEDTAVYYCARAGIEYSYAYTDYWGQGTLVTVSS VL: EIVLTQSPGTLSLSPGERATLSCRASQFVYSSDLAWYQQKPGQAPRLLIYGASTRKTGIPDRFSGSGSGTDFTLTISRLEPEDFAVYYCLQFGWWPPRTFGGGTKVEIK , please?
0.11
